# tested_on: wild-type BasC
# assay_remarks: Thermostability-based L-alanine binding assay (GFP-fused protein, SEC)
# Design: species or system Carnobacterium sp AT7
# measurement_context: mean of n=3; read-out: Apparent Kd Wild type, mean
pKd: −log10 of the molar value.
property_label: pKd

smiles_code: C[C@H](N)C(=O)O
recorded_number: 1.46

====

# tested_on: BasC Y236F mutant
# assay_remarks: Thermostability-based L-alanine binding assay, Y236F
# Design: species or system Carnobacterium sp AT7
# measurement_context: Y236F, incubated at Tm, L-alanine 0–200 mM; read-out: KD (apparent, thermostability-based)
pKd: −log10 of the molar value.
property_label: pKd

smiles_code: C[C@H](N)C(=O)O
recorded_number: 1.37
